- System: WPMY1-ACTB-RAB5A
- protocol text: phenotypically active (imaging signature differs from DMSO and reproducible) at any of 0.3-9 uM (binary (1 = active, 0 = inactive)); higher = active
- measurement conditions: treatment time: 24 h
Counter-ions that a name gives are not always drawn.
metric: phenotypically active
Field format: numeric only.

> print(dat)
                                   compound       test.target  measurement
1  Cc1c(C(=O)Nc2cccc(C(F)(F)F)c2)cc(-c2ccccc2)n1CCCN1CCOCC1  WPMY1-ACTB-RAB5A            0
2  CCN(CC)CCN1C(=O)CN=C(c2ccccc2F)c2cc(Cl)ccc21  WPMY1-ACTB-RAB5A            0
3  C/C=C(/C)C(=O)O[C@H]1C(C)=C2[C@H]([C@@H]1OC(=O)CCCCCCC)[C@@](C)(OC(C)=O)C[C@H](OC(=O)CCC)[C@@]1(O)[C@H]2OC(=O)[C@@]1(C)O  WPMY1-ACTB-RAB5A            1
4  C[C@@]12C(=O)OC(=O)[C@]1(C)[C@H]1CC[C@@H]2O1  WPMY1-ACTB-RAB5A            1
5  C[C@@]1(CO)[C@H](O)CC[C@@]2(C)[C@H]1CC[C@H]1C[C@@H]3C[C@@]12CC[C@]3(O)CO  WPMY1-ACTB-RAB5A            1
6       CN1C(=O)CN=C(c2ccccc2)c2cc(Cl)ccc21  WPMY1-ACTB-RAB5A            0

Qu. Indicate the recorded phenotypically active value for this compound: CNC(=O)Oc1ccc2c(c1)[C@]1(C)CCN(C)[C@@H]1N2C [Eserine sulfate, physostigmine sulfate]
Ans. 0

Qu. Give the reported phenotypically active for this compound. CC[C@@H](CO)NC(=O)[C@@H]1C=C2c3cccc4c3c(cn4C)C[C@H]2N(C)C1 [methysergide]
Ans. 0
